Molecular target: HLA-B*57:01
Test: IEDB peptide-MHC binding, purified MHC/direct/fluorescence; filed as Kd, often an IC50 or EC50 that approximates it; bounds were set here for any values at or beyond the usual limits of such assays
Conditions: source organism: Yersinia enterocolitica subsp. enterocolitica 8081
pKd: −log10 of the molar value.
ASSAY_ENDPOINT: pKd

Item ETIFTVLAL : provide pKd ≤ 4.70

* * *

Target: HLA-A*32:07
Experiment: IEDB peptide-MHC binding, purified MHC/competitive/fluorescence; filed as Kd, often an IC50 or EC50 that approximates it; bounds were set here for any values at or beyond the usual limits of such assays
Details: source organism: Yersinia pseudotuberculosis IP 31758
ASSAY_ENDPOINT: pKd
Numbers only, as −log10 of the molar value.

Item FQWWRSHPL : provide pKd 7.13

* * *

Target: HLA-A*03:01
Assay: IEDB peptide-MHC binding, purified MHC/direct/fluorescence; filed as Kd, often an IC50 or EC50 that approximates it; bounds were set here for any values at or beyond the usual limits of such assays
Conditions: source organism: Mycobacterium tuberculosis
Provide the reported Kd of each item.

// below: answered sequences
KPKLARGEL ... ≥ 20 µM
RPKPDYSAM ... ≥ 20 µM

Now take the following sequence into account.
Item RPRVAQLTF : provide Kd ≥ 20 µM

* * *

Target: HLA-A*66:01
Assay: IEDB peptide-MHC binding, purified MHC/competitive/fluorescence; filed as Kd, often an IC50 or EC50 that approximates it; bounds were set here for any values at or beyond the usual limits of such assays
Conditions: source organism: Entamoeba histolytica HM-1:IMSS
ASSAY_ENDPOINT: Kd

Answer briefly: Kd recorded on HLA-A*66:01 for IESNPLFPV ≥ 5 µM

* * *

Biological target: HLA-A*02:19
Test: IEDB peptide-MHC binding, purified MHC/competitive/fluorescence; filed as Kd, often an IC50 or EC50 that approximates it; bounds were set here for any values at or beyond the usual limits of such assays
Settings: source organism: Human immunodeficiency virus 1
ASSAY_ENDPOINT: Kd (µM)
Answers are plain numbers, in µM.

KMGKAGYVT ... 6

Item ALVEMGHHV : provide Kd 0.134

* * *

Provide the reported Kd of each item.
Molecular target: HLA-A*02:03
Assay: IEDB peptide-MHC binding, purified MHC/competitive/radioactivity; filed as Kd, often an IC50 or EC50 that approximates it; bounds were set here for any values at or beyond the usual limits of such assays
Conditions: source organism: Vaccinia virus WR

IASILSLETV ... 92.8 nM

# per-item lookup of Kd; items listed below
1. SVDEEGCGPL
2. IMSIGFEARI
3. STTGEWPLI
4. HLTENNLYI
5. EVMPEKRNVV

1. ≥ 38700 nM
2. 1500 nM
3. ≥ 44500 nM
4. 14400 nM
5. 2620 nM

* * *

Target: HLA-A*02:19
Test: IEDB peptide-MHC binding, purified MHC/competitive/fluorescence; filed as Kd, often an IC50 or EC50 that approximates it; bounds were set here for any values at or beyond the usual limits of such assays
Details: source organism: Yersinia pestis Antiqua
ASSAY_ENDPOINT: Kd (nM)
One number for each entry, in nM.

Item PLTNQRYRV : provide Kd 797

* * *

Biological target: HLA-B*15:17
Assay: IEDB peptide-MHC binding, purified MHC/competitive/fluorescence; filed as Kd, often an IC50 or EC50 that approximates it; bounds were set here for any values at or beyond the usual limits of such assays
Details: source organism: Vaccinia virus WR
ASSAY_ENDPOINT: pKd
Numbers only, as −log10 of the molar value.

LTFLHTLYK ... 6.65

Now take the following sequence into account.
Item FVHTLLKTY : provide pKd 7.26
